species on record: Mus musculus; assay: Analgesic activity tested by phenylquinone induced writhing test in mice; format: functional
Quick reference for ED50 among some compounds
Readout Label: ED50

> print(dat)
                                   compound  experimental.result
1  O=C(c1ccccc1)c1cccc2c1OCC2C(=O)O (centres undefined)            2.8 mg/kg
2  O=C(c1ccc(Cl)cc1)c1cc(Cl)cc2c1OCC2C(=O)O (centres undefined)            > 4 mg/kg
3  COC(=O)C1COc2c(C(=O)c3ccccc3)cc(Cl)cc21 (centres undefined)             13 mg/kg
4  O=C(c1ccccc1)c1cccc2c1SCC2C(=O)O (centres undefined)            0.6 mg/kg
